Record form. Attribute: growth inhibition. Fill in for each entry.
assay-summary: NCI Yeast Anticancer Drug Screen. Data for the sgs1 mgt1 strain (AID 161);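 further: 0% = growth of cultures given vehicle only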
applied-conditions: S. cerevisiae sgs1 mgt1 strain, at 50.0 µM, hits give high values
This is part of a sample that, as a whole, favours compounds with a hit. Of some 79,000 tested, about 15% had one in any assay.
Kindly answer with a numeric value in %, unit omitted.

Task: Quick check: growth inhibition of C=CC(C)(C)[C@@]12CC3C(=O)N[C@@H](Cc4ccccc4)C(=O)N3[C@@H]1N(C(C)=O)c1ccccc12 (stereo not given in full) ?
Result: 16.7

Task: Quick check: growth inhibition of COc1cc(C2c3cc4c(cc3OC(NCCc3ccccc3)C2C)OCO4)cc(OC)c1OC (stereo not given) ?
Result: -0.3

Task: Quick check: growth inhibition of CC1CCCC(C(O)CC2CC(=O)NC(=O)C2)C1O (stereo not given) ?
Result: 3.5

Task: Quick check: growth inhibition of C=CC(=O)Nc1ccc(Br)cc1 ?
Result: -4.35

Task: Quick check: growth inhibition of CCOC(=O)/C=C(\N=P(c1ccccc1)(c1ccccc1)c1ccccc1)C(F)(F)C(F)(F)C(F)(F)C(F)(F)C(F)(F)F ?
Result: 32.4
